Quick reference: inhibition of the listed items.
# Species on record: Cavia porcellus
# assay_info: Displacement of [3H]MK-801 from NMDA receptor in guinea pig brain membrane at 10 uM
# Assay type: cell membranes
// note: answer is a bare numeric in %

Before answering, review these 8 worked examples.
compound	inhibition / %
c1ccc(CCN2CC3CCC(OCc4ccccc4)C2CN3Cc2ccccc2)cc1 (configuration not stated)	16.4
CCCCN1CC2CCC(OCc3ccccc3)C1CN2Cc1ccccc1 (configuration not stated)	21.5
OC1CCC2CN(CCc3ccccc3)C1CN2Cc1ccccc1 (single isomer, unassigned)	20.6
O[C@@H]1CCC2CN(CCc3ccccc3)C1CN2Cc1ccccc1 (some centres not stated)	21.9
CCCCN1CC2CCC(O)C1CN2Cc1ccccc1 (configuration not stated)	52.3
CO[C@@H]1CC[C@H]2CN(C)[C@@H]1CN2Cc1ccccc1	8.7
COC1(OC)CC[C@H]2CN(C)[C@@H]1CN2Cc1ccccc1	44.3
CN1CC2CCC(O)C1CN2Cc1ccccc1 (single isomer, unassigned; form 2)	21

# input Read the entry CN1C[C@@H]2CC[C@@H](OCc3ccccc3)[C@H]1CN2Cc1ccccc1 and write its reported inhibition.
# output 0

# input Read the entry CN1CC2CCC(O)C1CN2Cc1ccccc1 (single isomer, unassigned; form 1) and write its reported inhibition.
# output 13.7

# input Read the entry COC1CCC2CN(CCc3ccccc3)C1CN2Cc1ccccc1 (configuration not stated) and write its reported inhibition.
# output 50.5

# input Read the entry CCCCN1CC2CCC(OC)C1CN2Cc1ccccc1 (configuration not stated) and write its reported inhibition.
# output 55.5
